Taken from PubChem BioAssay.

- TEST_DESCRIPTION: growth suppression of PTEN-deleted HCT116, pilot screen, cell-based, HCT116 clonal line, CellTiter-Glo (AID 824);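 also: 0% = 20 µM Hyamine control and 100% = vehicle cell control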
- REPORTED_CONDITIONS: 60 h, at 10 µM, active compounds read low
Results filed as inconclusive are left out.
Listed next: entries and their corresponding viability.
Answer format: numeric, % implied, no suffix.

The following compounds have reported results that may help.
>>> df
                           substance_smiles  recorded_measurement
0  Cc1cc(C(=O)N2CCN(C(c3ccccc3)c3ccccc3)CC2)on1                  76.7
1  Cn1c(=O)c2c(nc(NCCc3ccccc3)n2Cc2ccc(F)cc2)n(C)c1=O                  55.3
2              CCc1cccc(C)c1NC(=O)CCCC(=O)O                   102
3  Cc1nc2ccccc2c2oc(C(=O)N3CCc4ccccc43)cc12                  89.1
4  CC(=O)N1CCc2cc(C(=O)CN3CCN(c4cccc(Cl)c4)CC3)ccc21                  76.8

We next turn to a different compound, shown below.
Request: Dear colleague, I am looking for the recorded viability of the following compound: `Cc1ccc(-n2c(SCC(N)=O)nc3c([nH]c4ccccc43)c2=O)cc1`
Result: 87.5
